Assay: Toxicity liver stage against HepG2, at 10uM
Assay type: cell-based
Parameters: test concentration 10 uM, cell line HepG2-A16-CD81EGFP
Details: human, HepG2-A16-CD81EGFP cells; read-out: INHIBITION
Listing: cytotoxicity at 10 µM of selected molecules

Guide cases for cytotoxicity at 10 µM, answers given:
[[record]]
molecule = "COc1cccc(CN(C)Cc2cccc(C#N)c2)c1OC"
reported_metric = "cytotoxicity at 10 µM"
recorded_measurement = "-7.82%"

[[record]]
molecule = "CCOCCN1CCc2cncnc2C1"
reported_metric = "cytotoxicity at 10 µM"
recorded_measurement = "-20.7%"

[[record]]
molecule = "CC(=O)N(C)Cc1ccccc1NC(=O)N(C)CCc1cccs1"
reported_metric = "cytotoxicity at 10 µM"
recorded_measurement = "-10.4%"


Input: Endpoint output: cytotoxicity at 10 µM of Cc1ccnc(C2CCCN2C(=O)c2cnccn2)n1 (stereo unspecified) . Value?
Output: -14.1%

Input: Also, CC(C)n1nc2c(cc1=O)CN(c1ncnc3sccc13)CC2 please.
Output: 49.7%

Input: Also, Cc1ccc(-n2ncc(C(=O)N(C)C3CCN(C)CC3)c2N)cc1C please.
Output: -8.56%

Input: Also, CCOc1ccc(Cl)c(C(=O)NCCS(N)(=O)=O)n1 please.
Output: -8.72%

Input: Also, CCN(CC)C(=O)c1ccn(COc2ccc(F)cc2)n1 please.
Output: 7.55%

Input: Also, O=C(CN1CCOCC1)N1CCC2(CCCN(C3CCOCC3)C2=O)C1 (stereo unspecified) please.
Output: -129%

Input: Also, Cc1n[nH]c(C)c1NC(=O)CN1CCCC(CNC(=O)C(C)(C)C)C1 (stereo unspecified) please.
Output: -4.64%

Input: Also, O=C(NCCc1cccs1)[C@H]1CO[C@H]2CCNC[C@H]2C1 please.
Output: 2.11%

Hello, the source for this data is ChEMBL document CHEMBL4513216, in case you need it.
